The reported numbers originate from patent US10093630B2.

inhibition at 1 µM overview
# tested target: PLA2G7 (Mus musculus)
# Construct: Proteomes (mouse brain membrane fraction or cell lysates); from tissue; host or cells: mouse brain membrane fraction (or cell lysates, not specified)
# Sequence (Q60963 22-440): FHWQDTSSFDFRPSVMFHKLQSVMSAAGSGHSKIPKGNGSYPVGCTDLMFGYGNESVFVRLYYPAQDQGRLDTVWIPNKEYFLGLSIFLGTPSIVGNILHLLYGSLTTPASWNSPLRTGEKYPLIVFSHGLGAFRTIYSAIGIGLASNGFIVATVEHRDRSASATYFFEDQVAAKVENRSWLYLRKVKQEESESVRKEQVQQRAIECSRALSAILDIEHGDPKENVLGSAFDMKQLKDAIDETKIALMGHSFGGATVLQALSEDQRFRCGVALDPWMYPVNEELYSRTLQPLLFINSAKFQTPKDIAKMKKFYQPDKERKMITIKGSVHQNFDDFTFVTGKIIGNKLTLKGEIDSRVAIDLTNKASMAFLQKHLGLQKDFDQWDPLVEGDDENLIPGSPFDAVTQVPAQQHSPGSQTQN
# assay explanation: In vitro competitive activity-based protein profiling (gel-based, FP-Rh or HT-01 probe)
# Format: biochemical
# applied conditions: 1 μM inhibitor; read-out: % Inhibition at 1 μM, D = PLA2G7
result type: inhibition at 1 µM

O=C(N1CCN(Cc2ccc(-c3ccccc3)cc2OCc2ccccc2)CC1)n1cc(C(F)(F)F)cn1 [Example 147]
< 25%
O=C(N1CCN(C(c2ccc(Cl)cc2)c2ccc(Cl)cc2)CC1)n1cc(-c2ccccc2C(F)(F)F)cn1 [Example 123]
< 25%
O=C(N1CCN(Cc2ccncc2)CC1)n1cc(-c2ccccc2)cn1 [Example 59]
> 75%
N#Cc1cnn(C(=O)N2CCCN(Cc3ccccc3)CC2)c1 [Example 179]
< 25%
N#Cc1cnn(C(=O)N2CCN(Cc3ccc(OCc4ccccc4)cc3)CC2)c1 [Example 21]
< 25%
O=C(N1CCN(Cc2ccccc2)CC1)n1cc(C(F)(F)F)cn1 [Example 152]
> 75%
O=C(N1CCN(Cc2ccc3ccccc3c2)CC1)n1cc(Br)cn1 [Example 13]
> 75%
CCN(Cc1cccc(N2CCOCC2)c1)C(=O)n1cc(C#N)cn1 [Example 242]
< 25%
O=C(N1CCN(Cc2ccc(-c3ccccc3)cc2OCc2ccccc2)CC1)n1cc(Cl)cn1 [Example 148]
< 25%

====

# tested target: ABHD6 (Mus musculus, UniProt Q8R2Y0)
# Construct: Proteomes (mouse brain membrane fraction or cell lysates); from tissue; host or cells: mouse brain membrane fraction (or cell lysates, not specified)
# assay explanation: In vitro competitive activity-based protein profiling (gel-based, FP-Rh or HT-01 probe)
# Format: biochemical
# applied conditions: mouse brain membrane fraction or cell lysates, 30 min preincubation at 37° C.; read-out: Mouse (IC50 value, nM) ABHD6
result type: IC50

O=C(N1CCN(Cc2ccc(N3CCCC3)cc2)CC1)n1cc(Cl)cn1 [Example 212]
100 to 1000 nM
CCN(Cc1ccc(Cl)cc1)C(=O)n1cc(C#N)cn1 [Example 252]
> 1000 nM
CCN(Cc1cccc(Cl)c1)C(=O)n1cc(Cl)cn1 [Example 134]
> 1000 nM
O=C(N1CCN(Cc2ccccc2N2CCCC2)CC1)n1cc(C(F)(F)F)cn1 [Example 280]
100 to 1000 nM
O=C(N1CCN(Cc2cccc(N3CCOCC3)c2)CC1)n1cc(C(F)(F)F)cn1 [Example 274]
< 100 nM
Cc1cc(-c2ccccc2)ccc1CN1CCN(C(=O)n2cc(C(=O)N3CCOCC3)cn2)CC1 [Example 57]
100 to 1000 nM
O=C(c1ccccc1)N1CCCN(C(=O)n2cc(C(F)(F)F)cn2)CC1 [Example 158]
> 1000 nM
CCN(Cc1cccc(C)c1)C(=O)n1cc(Cl)cn1 [Example 135]
> 1000 nM
COc1cc(-c2ccccc2)ccc1CN1CCN(C(=O)n2cc(Cl)cn2)CC1 [Example 141]
100 to 1000 nM
N#Cc1cnn(C(=O)N2CCN(Cc3ccccc3)CC2)c1 [Example 9]
< 100 nM
O=C(c1cnn(C(=O)N2CCN(C(c3ccc(Cl)cc3)c3ccc(Cl)cc3)CC2)c1)N1CCCC1 [Example 48]
100 to 1000 nM
O=C(N1CCN(Cc2c(N3CCCC3)cccc2C(F)(F)F)CC1)n1cc(F)cn1 [Example 113]
100 to 1000 nM
CCN(Cc1cccc(N2CCOCC2)c1)C(=O)n1cc(C(F)(F)F)cn1 [Example 261]
> 1000 nM
O=C(N1CCN(Cc2ccc(-c3ccccc3)cc2Cl)CC1)n1cc(Cl)cn1 [Example 139]
100 to 1000 nM
O=C(c1cnn(C(=O)N2CCN(Cc3ccc4c(c3)OCO4)CC2)c1)N1CCOCC1 [Example 51]
100 to 1000 nM
O=C(N1CCN(Cc2ccc(Cl)c(Cl)c2)CC1)n1cc(Cl)cn1 [Example 211]
< 100 nM
Cc1cc(-c2ccccc2)ccc1CN1CCN(C(=O)n2cc(C(=O)N3CCCC3)cn2)CC1 [Example 85]
100 to 1000 nM
CCN(Cc1cccc(C)c1)C(=O)n1cc(C#N)cn1 [Example 246]
100 to 1000 nM

====

Measured inhibition at 1 µM accompanies every entry in the list below.
# tested target: ABHD6 (Mus musculus, UniProt Q8R2Y0)
# Construct: Proteomes (mouse brain membrane fraction or cell lysates); from tissue; host or cells: mouse brain membrane fraction (or cell lysates, not specified)
# Sequence (Q8R2Y0 1-336): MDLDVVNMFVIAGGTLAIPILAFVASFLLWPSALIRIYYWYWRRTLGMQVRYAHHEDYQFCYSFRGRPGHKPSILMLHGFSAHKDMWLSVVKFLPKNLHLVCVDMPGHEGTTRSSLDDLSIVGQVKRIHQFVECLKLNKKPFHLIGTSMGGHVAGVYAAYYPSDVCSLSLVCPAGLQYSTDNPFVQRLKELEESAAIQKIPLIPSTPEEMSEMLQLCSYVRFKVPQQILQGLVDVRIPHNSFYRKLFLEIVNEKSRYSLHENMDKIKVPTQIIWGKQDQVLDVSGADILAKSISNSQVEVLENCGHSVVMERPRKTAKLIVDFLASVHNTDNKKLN
# assay explanation: In vitro competitive activity-based protein profiling (gel-based, FP-Rh or HT-01 probe)
# Assay type: biochemical
# applied conditions: 1 μM inhibitor; read-out: % Inhibition at 1 μM, C = ABHD6
# Protocol: In Vitro Competitive Activity-Based Protein Profiling. Proteomes (mouse brain membrane fraction or cell lysates) (50 μL, 1.0 mg/mL total protein concentration) were preincubated with varying concentrations of inhibitors at 37° C. […] Following gel imaging, serine hydrolase activity was determined by measuring fluorescent intensity of gel bands corresponding to MAGL, ABHD6, FAAH, and PLA2G7 using ImageJ 1.43u software.
result type: inhibition at 1 µM

Cc1cnn(C(=O)N2CCN(C)CC2)c1
< 25%
O=C(N1CCN(Cc2ccncc2)CC1)n1cc(-c2ccccc2)cn1
> 75%
N#Cc1cnn(C(=O)N2CCN(Cc3ccc(OCc4ccccc4)cc3)CC2)c1
> 75%
O=C(N1CCN(C(c2ccc(Cl)cc2)c2ccc(Cl)cc2)CC1)n1cc(C(F)(F)F)cn1
> 75%
O=C(N1CCN(Cc2ccc(-c3ccccc3)cc2OCc2ccccc2)CC1)n1cc(Cl)cn1
> 75%
N#Cc1cnn(C(=O)NCCCc2ccccc2)c1
< 25%
N#Cc1cnn(C(=O)Nc2ccc3ccccc3c2)c1
< 25%
N#Cc1cnn(C(=O)NCc2ccc3ccccc3c2)c1
< 25%
O=C(N1CCN(c2ccc(Cl)cc2)CC1)n1cc(C(F)(F)F)cn1
> 75%

====

# tested target: MAGL (Mus musculus)
# Construct: Proteomes (mouse brain membrane fraction or cell lysates); from tissue; host or cells: mouse brain membrane fraction (or cell lysates, not specified)
# Sequence (O35678 whole entry): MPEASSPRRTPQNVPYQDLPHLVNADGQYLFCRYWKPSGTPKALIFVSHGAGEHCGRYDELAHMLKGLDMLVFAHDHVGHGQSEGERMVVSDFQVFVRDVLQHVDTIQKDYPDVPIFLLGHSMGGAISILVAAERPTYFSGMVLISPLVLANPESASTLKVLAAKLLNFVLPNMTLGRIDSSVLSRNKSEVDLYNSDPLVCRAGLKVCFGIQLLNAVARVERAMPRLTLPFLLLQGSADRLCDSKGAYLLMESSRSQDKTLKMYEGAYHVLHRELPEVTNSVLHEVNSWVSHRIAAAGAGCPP
# assay explanation: In vitro competitive activity-based protein profiling (gel-based, FP-Rh or HT-01 probe)
# Type: biochemical
# applied conditions: 1 μM inhibitor
result type: inhibition at 1 µM

CN(CCN(C)S(C)(=O)=O)C(=O)n1cc(C(F)(F)F)cn1
< 25%
CC(C)n1cc(CN2CCN(C(=O)n3cc(Cl)cn3)CC2)c(-c2ccccc2)n1
> 75%
CC(C)(C)OC(=O)N1CCCN(C(=O)n2cc(C#N)cn2)CC1
> 75%
O=C(N1CCCC1)n1cc(C(F)(F)F)cn1
< 25%
O=C(N1CCN(Cc2ccc(Cl)c(Cl)c2)CC1)n1cc(Cl)cn1
> 75%
O=C(N1CCN(Cc2ccc(-c3ccccc3)cc2OCc2ccccc2)CC1)n1cc(Cl)cn1
> 75%
O=C(N1CCN(Cc2ccc(Cl)cc2)CC1)n1cc(Cl)cn1
> 75%
O=C(c1cnn(C(=O)N2CCN(Cc3cccnc3)CC2)c1)N1CCCCC1
< 25%
Cc1cc(N2CCOCC2)ccc1CN1CCN(C(=O)n2cc(Cl)cn2)CC1
> 75%
O=C(c1cnn(C(=O)N2CCN(Cc3cncnc3)CC2)c1)N1CCCC1
< 25%
O=C(N1CCN(Cc2ccc(-c3ccccc3)cc2)CC1)n1cccn1
> 75%
Cc1ccc(N2CCN(C(=O)n3cc(C(F)(F)F)cn3)CC2)cc1
> 75%
CN(Cc1cccc(-c2ccncc2)c1)C(=O)n1cc(C#N)cn1
> 75%
O=C(c1ccccc1)N1CCCN(C(=O)n2cc(Cl)cn2)CC1
25 to 75%
Cc1cc(-c2ccccc2)ccc1CN1CCN(C(=O)n2cc(C(=O)N3CCCCC3)cn2)CC1
> 75%
Cc1cc(N2CCN(C(=O)n3cc(C#N)cn3)CC2)c2ccccc2n1
> 75%
O=C(N1CCCCC1)n1cc(-c2ccccc2)cn1
< 25%
N#Cc1cnn(C(=O)N2CCN(Cc3ccc4ccccc4c3)CC2)c1
> 75%
O=C(N1CCN(Cc2cccc(Oc3ccccc3)c2)CC1)n1cc(Cl)cn1
> 75%
O=C(N1CCCCC1)n1cc(C(F)(F)F)cn1
> 75%
O=C(N1CCN(Cc2ccc3ccccc3c2)CC1)n1cccn1
> 75%
O=C(N1CCN(C(c2ccc(Cl)cc2)c2ccc(Cl)cc2)CC1)n1cc(F)cn1
> 75%
Cc1cnn(C(=O)N2CCN(C(=O)OC(C)(C)C)CC2)c1
< 25%
O=C(N1CCN(c2cccc(N3CCOCC3)c2)CC1)n1cc(C(F)(F)F)cn1
> 75%
CC(C)(C)OC(=O)N1CCN(C(=O)n2cccn2)CC1
< 25%
O=C(c1cnn(C(=O)N2CCN(C(c3ccc(Cl)cc3)c3ccc(Cl)cc3)CC2)c1)N1CCOCC1
> 75%
CN(CCN(C)C(=O)n1cc(C#N)cn1)C(=O)c1ccccc1
< 25%
O=C(N1CCN(Cc2ccc3ccccc3c2)CC1)n1cc(Br)cn1
> 75%
COc1ccc(N2CCN(C(=O)n3cc(C(F)(F)F)cn3)CC2)cc1
> 75%
CCN(Cc1cccc(C)c1)C(=O)n1cc(Cl)cn1
25 to 75%
N#Cc1cnn(C(=O)NCCCCc2ccccc2)c1
< 25%
O=C(N1CCN(C(c2ccc(Cl)cc2)c2ccc(Cl)cc2)CC1)n1cc(-c2ccccc2)cn1
25 to 75%
COc1cc(-c2ccccc2)ccc1CN1CCN(C(=O)n2cc(C(F)(F)F)cn2)CC1
> 75%
CC(=O)N1CCN(C(=O)n2cc(Cl)cn2)CC1
< 25%
N#Cc1cnn(C(=O)N2CCN(Cc3ccc(Oc4ccccc4)cc3)CC2)c1
> 75%
N#Cc1cnn(C(=O)N2CCCCC2)c1
> 75%
COC(=O)c1cnn(C(=O)N2CCN(Cc3ccc4ccccc4c3)CC2)c1
> 75%
O=C(Nc1ccc2ccccc2c1)n1cccn1
< 25%
